test: NCI Yeast Anticancer Drug Screen. Data for the mec2-1 strain (AID 157); settings: S. cerevisiae mec2-1 strain, at 50.0 µM, stronger effect = higher value
Compounds without any hit were thinned out: in the full panel of roughly 79,000, 15% have a hit.
Observation type: growth inhibition (%)
Give the value in % but do not write % after it.

Query O=C1c2cccc3cccc(c23)C1(Br)Br yields growth inhibition of 23.4

Query O=C(Nc1cccc(Cl)c1)OCCN(CCOC(=O)Nc1cccc(Cl)c1)C(=O)Nc1cccc(Cl)c1 yields growth inhibition of 51.4

Query COc1ccc(/C=C(\C(=O)c2ccc(O)cc2)c2ccccc2)cc1OC yields growth inhibition of 98

Query O=c1cccc(C2CCc3cc(O)ccc3C2)[nH]1 (stereo unspecified) yields growth inhibition of 3.35

Query CCCOc1cc(C(=O)OCCN(CC)CC)cc(OCCC)c1OCCC yields growth inhibition of 15.8

Query COc1ccccc1/C=C(\NC(=O)c1ccccc1)c1nc2ccccc2[nH]1 yields growth inhibition of 95

Query O=C(CC(O)(C(F)(F)F)C(F)(F)F)C(c1ccccc1)C(O)(C(F)(F)F)C(F)(F)F (stereo unspecified) yields growth inhibition of 91.5

Query O=[N+]([O-])C1=Cc2ccccc2S(=O)(=O)CC1 yields growth inhibition of 92.2

Query CCCCCCCCCCCCCCNCC(OCC)OCC yields growth inhibition of 93.4

Query Oc1ccccc1C1N(Cc2ccc(Cl)cc2)CCN1Cc1ccc(Cl)cc1 yields growth inhibition of 17.6

Query Clc1ccccc1/C=C/c1ccccn1 yields growth inhibition of 30.7

====

Assay: NCI Yeast Anticancer Drug Screen. Data for the bub3 strain (AID 167)
Details: S. cerevisiae bub3 mutant strain, at 50.0 µM, stronger effect = higher value
Procedure: Growth inhibition of yeast strains with defined genetic alterations is measured as a screen for potential anti-cancer activity. Selected strains with alterations in DNA damage repair or cell cycle control were exposed to compounds and growth inhibition was measured relative to vehicle treated controls. The strain used in this assay is bub3
This is part of a sample that, as a whole, favours compounds with a hit. Of some 79,000 tested, about 15% had one in any assay.
Is growth inhibition at least 60%? Then Condition met. If not, Condition not met.

API: above_or_equal(metric=growth inhibition, cutoff=60%) for item OCC(c1ccccc1)[P+](c1ccccc1)(c1ccccc1)c1ccccc1 (stereo not given)
Condition not met

API: above_or_equal(metric=growth inhibition, cutoff=60%) for item CC1=C(C(=O)OCCc2ccc([N+](=O)[O-])cc2)C(c2ccccc2[N+](=O)[O-])C(C(=O)OC(C)C)=C(C)N1 (stereo not given)
Condition met

API: above_or_equal(metric=growth inhibition, cutoff=60%) for item C[n+]1c2ccc(Cl)cc2nc2cc(-c3ccccc3)ccc21
Condition met

API: above_or_equal(metric=growth inhibition, cutoff=60%) for item CC(C)=CN(C)C (tested in a mixture with another compound)
Condition met

API: above_or_equal(metric=growth inhibition, cutoff=60%) for item c1ccc(B2OC(c3ccccc3)C(c3ccccc3)O2)cc1 (stereo not given)
Condition not met

API: above_or_equal(metric=growth inhibition, cutoff=60%) for item CCOC(=O)/C(=C/c1ccc(Cl)cc1)N(CC)CC
Condition met

API: above_or_equal(metric=growth inhibition, cutoff=60%) for item Cc1ccc2ccc(C(Nc3ccccc3)c3ccncc3)c(O)c2n1 (stereo not given)
Condition met

API: above_or_equal(metric=growth inhibition, cutoff=60%) for item CCCCCCCCCCCCCCCCC/C=N\NC(=O)CCCC(=O)N/N=C/CCCCCCCCCCCCCCCCC
Condition met

API: above_or_equal(metric=growth inhibition, cutoff=60%) for item O=C1C=C(Br)C(=O)C12CCc1ccccc12 (stereo not given)
Condition met

====

assay: NCI Yeast Anticancer Drug Screen. Data for the sgs1 mgt1 strain (AID 161);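 also: 0% = growth of cultures given vehicle only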; settings: S. cerevisiae sgs1 mgt1 strain, at 50.0 µM, stronger effect = higher value
This is part of a sample that, as a whole, favours compounds with a hit. Of some 79,000 tested, about 15% had one in any assay.
For each of the compounds below, state its growth inhibition.
Give the value in % but do not write % after it.

Query CC(=O)OC1CCCCCCCCCCC12OCCO2 (configuration not stated) yields growth inhibition of 73.5

Query CCCCCCCCCCCCCCCCC/C=N\NC(=O)CCCC(=O)N/N=C/CCCCCCCCCCCCCCCCC yields growth inhibition of 98

Query CSCSCC(CO)NC(=O)/C=C/c1c(C)[nH]c(=O)[nH]c1=O (configuration not stated) yields growth inhibition of 93.8

Query O=c1[nH]c2ccccc2c(O)c1/C=N/C(=S)NCCc1ccccc1 yields growth inhibition of 5.4

Query OC1CC2CCC(C1)N2CCCN1c2ccccc2Sc2ccc(Cl)cc21 (configuration not stated) yields growth inhibition of 99.1

Query COc1ccc2c(c1)CC/C(=C\c1ccc(OCCN(C)C)cc1)C2=O yields growth inhibition of 44.8

Query CCN(CCCOc1ccccc1)CCN(CC)CCCOc1ccccc1 yields growth inhibition of 60.9

Query COCC(O)Cn1cc([N+](=O)[O-])nc1C (configuration not stated) yields growth inhibition of -4.8

Query C=CC(=O)N1C/C(=C\c2ccccc2)C(=O)/C(=C/c2ccccc2)C1 yields growth inhibition of 71.7

Query CCCCOC(=O)C#CC(=O)OCCCC yields growth inhibition of 99.3

Query COc1ccc2c(c1)CCCN2CCCCCCCCCN1CCCCC1 yields growth inhibition of 82.8

Query CCCCOC(=O)c1cnc[nH]c1=O yields growth inhibition of 8.15

====

For each of the compounds below, state its growth inhibition.
assay: NCI Yeast Anticancer Drug Screen. Data for the mlh1 rad18 strain (AID 175); details: S. cerevisiae mlh1 rad18 strain growth inhibition; at 50.0 µM; stronger effect = higher value
The panel holds about 79,000 compounds, 15% with a hit somewhere; the sample as a whole holds those more often.
Give the value in % but do not write % after it.

Query NC(C(=O)O)C1=CCCCCC1 (stereo not drawn) yields growth inhibition of 15.4

Query C[C@]12CC[C@H](O)CC1=CC[C@@H]1C2CC[C@]2(C)NC(=O)CCC12 (stereo partly drawn) yields growth inhibition of 76

Query CCCCN1C(=O)C[C@H]2[C@@H]3CCc4cc(OCCN5CCCC5)ccc4[C@H]3CC[C@]2(C)C1=O yields growth inhibition of 63.6

Query C/C(=C\N1CCN(c2ccc(Cl)cc2)C(C)C1)C(=O)c1ccccc1 (stereo not drawn) yields growth inhibition of 57.3

Query CC(=O)c1cccc(NC(=O)C(=O)NNc2n[nH]c(=S)n2N)c1 yields growth inhibition of 91.1

Query O=Nc1c(-c2c[nH]c3ccccc23)[nH]c2ccccc12 yields growth inhibition of 26.1

Query CC(O)c1c2c(cc3c1CC1(C3)Cc3cc4c(c(C(C)O)c3C1)CCC4)CCC2 (stereo not drawn) yields growth inhibition of 88.3

Query CCCCC(CSC#N)SC#N (stereo not drawn) yields growth inhibition of 98.3

Query CC1CCCC(C)C1=O (stereo not drawn) yields growth inhibition of -4.35

Query C[N+](C)(CCO)Cc1ccccc1 yields growth inhibition of 34

Query N#CCC(=O)N/N=C(/CC1(O)C(=O)Nc2c(Cl)cc(Cl)cc21)c1ccccc1 (stereo not drawn) yields growth inhibition of 75.2

Query O=C(Cc1ccccc1)OC(C(=O)c1ccccc1)c1ccccc1 (stereo not drawn) yields growth inhibition of -3.1

Query CCC(C)Sc1nc2c([nH]1)c(=S)n(C)c(=O)n2C (stereo not drawn) yields growth inhibition of 95.2

Query O=C1OC(c2ccc(O)cc2)=C(c2ccccc2)C1c1ccccc1 (stereo not drawn) yields growth inhibition of 99.5

Query COc1ccc(CN2CCCN(Cc3ccc(OC)cc3)C2Cc2cc(Cl)ccc2OC)cc1 yields growth inhibition of 77.8

Query CCCCCCCCCCN yields growth inhibition of 46.8

Query Cc1c2ccncc2c(C)c2c1[nH]c1ccc(OCCN(C)C)cc12 yields growth inhibition of 96.3

Query CC1=C(C(=O)NCc2ccccc2)C(c2ccccc2O)C(C(=O)NCc2ccccc2)=C(C)N1 yields growth inhibition of 78.2

Query Cc1cc(C)c2c(c1)sc1nncn12 yields growth inhibition of 98.9

Query COc1c2c(cc3c1c(=O)c1ccccc1n3C)OCO2 yields growth inhibition of 62.8

Query CC1(C)S[C@@H]2[C@H](N3C(=O)c4ccccc4C3=O)CN2[C@H]1NC(=O)N[C@@H]1N2C[C@@H](N3C(=O)c4ccccc4C3=O)[C@H]2SC1(C)C yields growth inhibition of 70.8

Query O=C1/C(=C/c2cccc(Br)c2)CCc2ccccc21 yields growth inhibition of 65.8

Query C=CC[P+](CC[P+](CC=C)(c1ccccc1)c1ccccc1)(c1ccccc1)c1ccccc1 yields growth inhibition of 52.2

Query ClC/C=C/c1ccccc1 yields growth inhibition of 62.6

Query NCc1cccc(O)c1O yields growth inhibition of 24.9

Query O=C1C(C=NC(=S)c2ccccc2)=C(O)c2ccccc21 yields growth inhibition of 6.45

Query O=C(O)c1ccc2ccccc2c1C(=O)c1cccc2ccccc12 yields growth inhibition of 92.2

Query O=C1C=C(c2ccccc2)O/C1=C/C(=O)c1ccc(Cl)cc1 yields growth inhibition of 52.9

Query Cc1ccc(-n2c(CSc3ccc(Cl)cc3)nnc2SCc2nc3ccccc3[nH]2)cc1 yields growth inhibition of 66.6

Query O=C(O)c1ccc(NC(c2ccccc2)c2ccc3cccnc3c2O)cc1 (stereo not drawn) yields growth inhibition of 98.2

Query Nc1ccc2ccccc2c1N=Cc1ccccc1[N+](=O)[O-] yields growth inhibition of 84.3

Query CCCOc1ccc(/C=N/NC(N)=S)cc1 yields growth inhibition of 67.3

Query C/C=C/C(=O)N1c2ccccc2CC1c1c(C)[nH]c2ccccc12 (stereo not drawn) yields growth inhibition of 96.6

Query CCOC(=O)c1ccc(O)c(OC)c1 yields growth inhibition of -7.1

Query CC1CCN(CCOC(=O)C(c2ccccc2)C2C=CCCC2)C1 (stereo not drawn) yields growth inhibition of 52.7

Query Cc1ccccc1C(=O)C(C)c1ccccc1 (stereo not drawn) yields growth inhibition of -9.2

Query COc1ccc(OC(C)=O)c2c1CCC=CC2=O yields growth inhibition of 74

Query CNc1ccc([N+](=O)[O-])cc1 yields growth inhibition of 10.3

Query CC(O)CCCOC(c1ccccc1)(c1ccccc1)c1ccccc1 (stereo not drawn) yields growth inhibition of 84.4

Query c1ccc(-c2c[nH]c(-c3ccccc3)c2-c2ccccc2)cc1 yields growth inhibition of 96.8

Query CC1Cc2ccc3c(c2C(c2ccc4c(c2)OCO4)C1C)OCO3 (stereo not drawn) yields growth inhibition of 8.9

Query O=[N+]([O-])c1cc(Cc2cc([N+](=O)[O-])c3cccnc3c2O)c(O)c2ncccc12 yields growth inhibition of 97.8

Query COc1ccc2c(c1)CCCN2S(=O)(=O)c1ccc(N)cc1 yields growth inhibition of 47

Query CSC(=S)N/N=C(/C)CC(C)C yields growth inhibition of 54

Query CSc1c(C)n([O-])c2cc(Cl)c(Cl)cc2[n+]1=O yields growth inhibition of 92.3

Query Cc1c2c(c(C)c3c1sc1ccccc13)CCN=C2 yields growth inhibition of 57.2

Query CCCC/C=C(\CCCNCCCC)[Si](C)(C)C yields growth inhibition of 90.7

Query O=C1c2ccccc2-c2cc(S)c([N+](=O)[O-])cc21 yields growth inhibition of 18.5
